Tested on: EGFR(G719C);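 also: KINOMEscan scanMAX binding as percent activity remaining versus control; lower means stronger binding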
Details: Compound Concentration (nM):1000
Binary call on Percent Control with cut-off 90%: strictly below means Satisfied, and equality or higher means Not satisfied.

NS(=O)(=O)c1ccc(N/N=C2\C(=O)Nc3ccc(C(=O)NCc4ccncc4)cc32)cc1 [GW300657X] :: Not satisfied
COc1cc(N2CCN(C(C)C)CC2)ccc1Nc1nc(Nc2ccc(F)cc2C(=O)NC[C@@H](O)CO)c2cc[nH]c2n1 [GSK1392956A] :: Not satisfied
COc1ccccc1-c1cc(/C=C2\C(=O)Nc3ncc(Br)cc32)cc(Br)c1O [GW442130X] :: Not satisfied
COc1ccc2cc(-c3c(-c4ccncc4)nc(-c4ccc(S(C)(=O)=O)cc4C)n3C)ccc2c1 :: Satisfied
CCc1ccc(Oc2nccc(-c3c(-c4ccc(F)cc4)ncn3C3CCNCC3)n2)cc1 :: Satisfied
COc1cc(/C=N/Nc2ncnc3[nH]ncc23)ccc1O [GW578748X] :: Satisfied

In the following, a different molecule is considered.
[in] Decide: Percent Control of CC1=C(C(=O)Nc2ccc3[nH]ncc3c2)C(c2ccc3ccccc3c2)CC(=O)N1 (centres unmarked) [GSK270822A] strictly below 90%?
[out] Satisfied
